Recorded values, source ChEMBL document CHEMBL5058577.

Test system: U2OS
Assay: Multiplex assay against U2OS
Type: toxicity, cell-based
Settings: human, 12 h, 1 µM, compound concentration 1 uM, replicate 2
Non-standard residues stand in square brackets, D forms with d. Residues, ends and D or L forms follow the SMILES beside them.
Rule: T for Population Pyknosed Nuclei (%) not less than 7%, F for anything less.

molecule: O=c1nc2[nH]c3ccccc3nc-2c(=O)[nH]1
class.label: T

Ask: Determine whether this molecule has Population Pyknosed Nuclei (%) no lower than 7%: O=C(NCCNCC(O)COc1ccc(O)cc1)N1CCOCC1.O=C(NCCNCC(O)COc1ccc(O)cc1)N1CCOCC1.O=C(O)/C=C/C(=O)O (centres undefined) [XAMOTEROL FUMARATE]
Result: T

Ask: Kindly determine if Population Pyknosed Nuclei (%) recorded for CC(C)(O)C(=O)N1CCN(c2ccc(C(F)(F)F)c(C3=C(c4c[nH]c5ccccc45)C(=O)NC3=O)c2)CC1 is above or exactly 7%.
Result: T

Ask: Is it the case that Cc1ccc(OCC(O)C(C)NC(C)C)c2c1CCC2.Cl (centres undefined) has Population Pyknosed Nuclei (%) reaching or exceeding 7%?
Result: T

Ask: Is Population Pyknosed Nuclei (%) at least 7%? Consider Cc1cc(O)c(-c2ccc([C@@H](C)CN(C)C)cc2)c2c1[nH]c(=O)c1sccc12
Result: T

Ask: Is the recorded value of Population Pyknosed Nuclei (%) equal to or greater than 7% for this molecule? COc1cc2nc(N3CCN(C(=O)COc4c(OC)cccc4C(C)C)CC3)nc(N)c2cc1OC.Cl.Cl
Result: F

Ask: Quick check: does CN(C)C(=O)Cn1cc(-c2ccc(-c3nnc4ccccn34)cc2)cn1 have Population Pyknosed Nuclei (%) greater than or equal to 7%?
Result: T

Ask: Reported Population Pyknosed Nuclei (%) reaches at least 7% for CN(C)C/C=C/C(=O)Nc1ccc(C(=O)N2CCCC(Nc3ncc(Cl)c(-c4c[nH]c5ccccc45)n3)C2)cc1 (centres undefined) ?
Result: F

Ask: Is reported Population Pyknosed Nuclei (%) greater than or equal to 7% here: CN1C[C@H](C(=O)N[C@]2(C)O[C@@]3(O)[C@@H]4CCCN4C(=O)[C@H](Cc4ccccc4)N3C2=O)C[C@@H]2c3cccc4[nH]cc(c34)C[C@H]21.CS(=O)(=O)O [DIHYDROERGOTAMINE MESYLATE]
Result: T

Ask: hey, is Population Pyknosed Nuclei (%) for this one >= 7%? OCCCNc1cc(-c2ccnc(Nc3cccc(Cl)c3)n2)ccn1
Result: T

Ask: Quick check, Population Pyknosed Nuclei (%) >= 7%? CC(C)C[C@@H]1NC(=O)[C@@H](C(C)C)NC(=O)[C@@H]2CCCN2C(=O)[C@@H](CC(=O)O)NC(=O)[C@@H](Cc2c[nH]c3ccccc23)NC1=O [BQ-123] (cyclo(L[dW][dD]P[dV]))
Result: F

Ask: API: above_or_equal(metric=Population Pyknosed Nuclei (%), cutoff=7%) for item Nc1nc(-c2ccco2)c2cnn(Cc3ccccc3F)c2n1
Result: T

Ask: Check the entry COc1cc(C(=O)N2CC[C@@H](O)[C@@H](N)C2)cc2nc(-c3cc4ccccc4n3CC3CC3)n(C)c12.Cl : does Population Pyknosed Nuclei (%) equal or exceed 7%?
Result: T

Ask: Given the entry COc1cc2nc(N3CCN(C(=O)c4ccco4)CC3)nc(N)c2cc1OC.Cl [PRAZOSIN HYDROCHLORIDE] , answer whether its Population Pyknosed Nuclei (%) meets or surpasses 7%.
Result: T

Ask: Check this molecule for Population Pyknosed Nuclei (%) at or above 7%: C=CCN1C[C@H](C(=O)N(CCCN(C)C)C(=O)NCC)C[C@@H]2c3cccc4[nH]cc(c34)C[C@H]21
Result: F
